System: Mycolicibacterium smegmatis
TEST: Antimicrobial activity against Mycobacterium smegmatis transformed with erm allele Mycobacterium abscessus isolate MC879 preincubated with 2 ug/ml erythromycin for 20 to 24 hrs by broth microdilution method
Type: functional
PARAMETER MEASURED: MIC

Output measured MIC for this item: CC[C@H]1OC(=O)[C@H](C)C(=O)[C@H](C)[C@@H](O[C@@H]2O[C@H](C)C[C@H](N(C)C)[C@H]2O)[C@](C)(OC)C[C@@H](C)C(=O)[C@H](C)[C@H]2N(CCCCn3cnc(-c4cccnc4)c3)C(=O)O[C@]12C [TELITHROMYCIN]
> 128 µg/mL

====

Tested on: Mycolicibacterium smegmatis
TEST: Antimicrobial activity against Mycobacterium smegmatis transformed with erm allele Mycobacterium abscessus isolate MC1082 by broth microdilution method
Assay type: functional
Numbered stars: 1 amine (or outer) side, 2 acyl side, 3 side chain; on linkers, the order of the positions; unused ones are H or OH. Bridge positions count the residues as written; N and C are the ends. Square brackets hold non-standard residues; d marks the D form. Peptide text beside a SMILES is read from it. * marks the point of attachment. X1 = O=C1C[C@@H](C(=O)[*:2])N([*:1])C[C@H]1CS[C@@H]1CN2CCC1CC2; NMePhe(4-NMe2) = CN[C@@H](Cc1ccc(N(C)C)cc1)C(=O)O; Picolinoyl(3-OH) = O=C(c1ncccc1O)*; Phg = N[C@H](C(=O)O)c1ccccc1; dAbu = CC[C@@H](N)C(=O)O
MIC values, listed per item
The reply should be a number in mg/L, with the unit left off.

Please review the following examples before continuing.
COMPOUND: CCC[C@@H]1C[C@@H](C(=O)N[C@@H]([C@H]2O[C@H](SC)[C@H](O)[C@@H](O)[C@H]2O)[C@H](C)Cl)N(C)C1
MEASUREMENT UNIT: mg/L
READING: 32

COMPOUND: CC[C@H]1OC(=O)[C@H](C)C(=O)[C@H](C)[C@@H](O[C@@H]2O[C@H](C)C[C@H](N(C)C)[C@H]2O)[C@](C)(OC)C[C@@H](C)C(=O)[C@H](C)[C@H]2N(CCCCn3cnc(-c4cccnc4)c3)C(=O)O[C@]12C
MEASUREMENT UNIT: mg/L
READING: 4

COMPOUND: CC[C@H]1NC(=O)[C@@H](NC(=O)c2ncccc2O)[C@@H](C)OC(=O)[C@H](c2ccccc2)NC(=O)[C@@H]2CC(=O)[C@H](CS[C@@H]3CN4CCC3CC4)CN2C(=O)[C@H](Cc2ccc(N(C)C)cc2)N(C)C(=O)[C@@H]2CCCN2C1=O [QUINUPRISTIN] ({Picolinoyl(3-OH)}-T[dAbu]P[NMePhe(4-NMe2)][X1][Phg]; ester 1-C)
MEASUREMENT UNIT: mg/L
READING: 128

Output measured MIC for this item: CC[C@H]1OC(=O)[C@H](C)[C@@H](O[C@H]2C[C@@](C)(OC)[C@@H](O)[C@H](C)O2)[C@H](C)[C@@H](O[C@@H]2O[C@H](C)C[C@H](N(C)C)[C@H]2O)[C@](C)(O)C[C@@H](C)C(=O)[C@H](C)[C@@H](O)[C@]1(C)O
4
